- assay_system: T1, recombinant human IGSF8 extracellular domain tagged by a human Fc region (IGSF8-hFc) (human, UniProt Q969P0 28-579, biotin label in Examples 17, 18 and 28 (site not given))
- T1 construct: also called IGSF8-Fc fusion protein; IGSF8-hFc-biotin; not shown: human Fc region
- T1 sequence: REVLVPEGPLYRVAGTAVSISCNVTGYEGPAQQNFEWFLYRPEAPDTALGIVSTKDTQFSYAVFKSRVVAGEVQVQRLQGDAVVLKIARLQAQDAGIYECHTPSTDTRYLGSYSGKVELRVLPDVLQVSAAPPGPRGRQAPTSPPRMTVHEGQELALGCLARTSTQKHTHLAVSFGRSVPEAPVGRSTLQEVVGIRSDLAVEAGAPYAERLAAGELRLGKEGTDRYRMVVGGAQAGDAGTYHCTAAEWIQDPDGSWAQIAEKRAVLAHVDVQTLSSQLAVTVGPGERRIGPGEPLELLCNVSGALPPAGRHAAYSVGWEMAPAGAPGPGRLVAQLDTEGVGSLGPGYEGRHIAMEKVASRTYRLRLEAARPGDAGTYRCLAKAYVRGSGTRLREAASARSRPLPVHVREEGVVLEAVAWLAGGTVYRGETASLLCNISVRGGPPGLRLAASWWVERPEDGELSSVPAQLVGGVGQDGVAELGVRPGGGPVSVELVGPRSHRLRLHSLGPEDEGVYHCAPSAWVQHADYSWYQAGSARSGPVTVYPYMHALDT
- protocol_text: SPR, Ab captured
test_readout: koff (s⁻¹)
Number in s⁻¹, nothing else.

Answered cases to consult:
>>> result_value("L2-09 (antibody, V domains shown) VH: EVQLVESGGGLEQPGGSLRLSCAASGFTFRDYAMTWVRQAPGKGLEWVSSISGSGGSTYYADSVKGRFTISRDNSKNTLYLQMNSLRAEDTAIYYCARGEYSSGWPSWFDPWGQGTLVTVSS VL: DIQMTQSPSSLSASVGDRVTITCRASRTVGTFLNWYQQKPGKAPKALILHTSILEGGVPSRFSGSGSGTDFTLTISSLQPEDIGTYYCQQSHDVPRTFGQGTKVEIK")
"7.15e-05"
>>> result_value("L1VL-P46L (antibody, V domains shown) VH: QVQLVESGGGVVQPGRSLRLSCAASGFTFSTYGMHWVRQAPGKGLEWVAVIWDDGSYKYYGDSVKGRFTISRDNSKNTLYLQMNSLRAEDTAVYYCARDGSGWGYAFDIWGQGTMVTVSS VL: DIQLTQSPSSLSASVGDRVTITCQASQDISEYLNWYQHKPGKAPNLLVFDAANLETGVPPRFSATGSGTDFSLTITSLQPEDFATYYCQQYDSFPYTFGQGTRLDIK")
0.00341

Now, please, on to the next binder.
Need koff of L2-05 (antibody, V domains shown) VH: EVQLVESGGGLEQPGGSLRLSCAASGFTFRDYAMTWVRQAPGKGLEWVSAISGSGGSTYYADSVKGRFTISRDNSKNTLYLQMNSLRAEDTAIYYCARGEYSSGWPSWFDPWGQGTLVTVSS VL: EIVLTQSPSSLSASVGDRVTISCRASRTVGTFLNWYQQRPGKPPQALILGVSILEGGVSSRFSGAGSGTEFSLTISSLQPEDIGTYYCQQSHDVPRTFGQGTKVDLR , thanks.
0.000112
